# studySystem: human OAT1 Tyr230Phe (Y230F) (Homo sapiens, UniProt Q4U2R8, Y230F)
# Sequence (Q4U2R8 1-563 Y230F): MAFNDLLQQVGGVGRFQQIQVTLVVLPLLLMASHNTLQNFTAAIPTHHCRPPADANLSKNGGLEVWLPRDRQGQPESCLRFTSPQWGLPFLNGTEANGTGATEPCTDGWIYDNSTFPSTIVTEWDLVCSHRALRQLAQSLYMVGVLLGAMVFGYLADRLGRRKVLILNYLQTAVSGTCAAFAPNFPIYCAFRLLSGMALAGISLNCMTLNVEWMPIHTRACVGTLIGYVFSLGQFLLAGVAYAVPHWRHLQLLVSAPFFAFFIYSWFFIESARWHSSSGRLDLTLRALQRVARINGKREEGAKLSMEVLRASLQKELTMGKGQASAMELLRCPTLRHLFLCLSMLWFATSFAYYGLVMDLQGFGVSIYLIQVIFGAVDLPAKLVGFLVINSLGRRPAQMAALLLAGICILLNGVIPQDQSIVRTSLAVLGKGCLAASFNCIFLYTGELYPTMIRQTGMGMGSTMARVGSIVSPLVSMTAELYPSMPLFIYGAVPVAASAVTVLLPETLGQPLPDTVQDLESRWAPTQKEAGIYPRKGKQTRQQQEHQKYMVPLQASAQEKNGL
# measurementNotes: Cell-based 6-CF transport assay, HsOAT1 Tyr230Phe mutant
# runParameters: Tyr230Phe; 10 μM 6-CF, 8 min, HeLa cells; mean ± s.d.
measuredProperty: IC50
Your answer should be a number followed by the unit of measure.

stdin: Form field: reported IC50 of C[C@H](Cn1cnc2c(N)ncnc21)OCP(=O)(O)O
stdout: 450 µM

---

# studySystem: wild-type human OAT1 (HsOAT1) (Homo sapiens, UniProt Q4U2R8)
# Sequence (Q4U2R8 1-563): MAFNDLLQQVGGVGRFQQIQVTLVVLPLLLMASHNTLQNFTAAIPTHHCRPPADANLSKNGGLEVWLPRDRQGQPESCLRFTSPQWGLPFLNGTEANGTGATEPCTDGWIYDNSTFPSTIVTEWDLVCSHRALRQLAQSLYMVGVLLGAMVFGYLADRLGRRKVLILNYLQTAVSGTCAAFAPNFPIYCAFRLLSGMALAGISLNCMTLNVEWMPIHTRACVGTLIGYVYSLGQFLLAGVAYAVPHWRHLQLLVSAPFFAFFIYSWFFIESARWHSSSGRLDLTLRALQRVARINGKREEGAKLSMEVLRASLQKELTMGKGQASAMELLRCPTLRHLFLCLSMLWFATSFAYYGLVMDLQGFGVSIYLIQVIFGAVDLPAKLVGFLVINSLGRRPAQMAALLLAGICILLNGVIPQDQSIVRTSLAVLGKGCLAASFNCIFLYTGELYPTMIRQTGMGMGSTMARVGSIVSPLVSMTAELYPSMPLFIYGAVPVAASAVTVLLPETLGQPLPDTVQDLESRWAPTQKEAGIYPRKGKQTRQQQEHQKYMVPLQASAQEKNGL
measuredProperty: pIC50
Give bare numbers, as −log10 of the molar value.

stdin: // returns reported pIC50 for input C[C@H](Cn1cnc2c(N)ncnc21)OCP(=O)(O)O [tenofovir]
stdout: 3.92

---

# studySystem: OAT1 Ser350Ala (S350A) mutant, human (Homo sapiens, UniProt Q4U2R8, S350A)
# measurementNotes: Cell-based 6-CF transport assay, HsOAT1 Ser350Ala mutant
# runParameters: pH 7.2, probe 6-carboxyfluorescein (6-CF), 10 μM 6-CF, HeLa cells, mean ± s.d.
measuredProperty: IC50 at 8 min (µM)
Numbers only, in µM.

stdin: Given the entry C[C@H](Cn1cnc2c(N)ncnc21)OCP(=O)(O)O [tenofovir] , report its measured IC50 at 8 min.
stdout: 241

Taken from paper PMC10643130.
